Biological target: UniProtKB P11511
Sequence (P11511 whole entry): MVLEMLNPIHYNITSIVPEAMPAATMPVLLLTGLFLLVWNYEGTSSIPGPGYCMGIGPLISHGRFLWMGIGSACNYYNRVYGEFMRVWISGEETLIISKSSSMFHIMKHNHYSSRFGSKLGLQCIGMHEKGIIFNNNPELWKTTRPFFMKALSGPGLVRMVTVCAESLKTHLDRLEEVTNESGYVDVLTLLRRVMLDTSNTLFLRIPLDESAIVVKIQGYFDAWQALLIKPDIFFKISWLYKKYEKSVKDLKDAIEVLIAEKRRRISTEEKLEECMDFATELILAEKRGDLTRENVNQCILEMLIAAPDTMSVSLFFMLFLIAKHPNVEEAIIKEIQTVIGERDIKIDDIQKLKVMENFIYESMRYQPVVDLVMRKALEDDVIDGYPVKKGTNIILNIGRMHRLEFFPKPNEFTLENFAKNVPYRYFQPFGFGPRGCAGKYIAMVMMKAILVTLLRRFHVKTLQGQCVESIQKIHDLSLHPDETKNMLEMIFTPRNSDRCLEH
The following compounds were reported with IC50 values on UniProtKB P11511 in different studies.
Please give a number only; it is taken to be in nM.

Task item: So what's the measured IC50 for this one? N#Cc1cc(Cn2cncn2)ccc1-c1ccc(OS(N)(=O)=O)cc1
Reply: 284

Task item: So what's the measured IC50 for this one? N#Cc1ccc(C(c2ccc(C#N)cc2)n2cc(COc3ccc(Cl)cc3)nn2)cc1
Reply: 16100

Task item: Given O=c1c2ccccc2oc2c(Cn3ccnc3)cc([N+](=O)[O-])cc12 , state its recorded IC50.
Reply: 53

Task item: Name the reported IC50 value associated with the compound O=C1CCc2cc(Cc3cccnc3)cc3c2N1CC3
Reply: 3340

Task item: Give the measured IC50 of COc1ccc2c(c1)OC(c1ccccc1)CC2n1cnnc1 (stereo unspecified) .
Reply: 31600

Task item: I'd like to know its IC50. The compound in question is Oc1ccc2c(c1)OC(c1ccccc1)CC2n1cncn1 (stereo unspecified)
Reply: 430

Task item: Quick check: IC50 of CC1=C[C@@H]2c3c(O)cc(-c4cc5ccc(O)cc5o4)cc3O[C@]3(c4ccc(O)cc4O)Oc4cc(O)ccc4[C@@H](C1)C23 (stereo partly specified) ?
Reply: 7500

Task item: Find the recorded IC50 belonging to COc1cc2c(C)cc(=O)[nH]c2c(OC)c1OC and report it.
Reply: 18500

Task item: Give the measured IC50 of O=S(=O)(NCCc1ccccc1)c1ccc(-n2cc(COc3ccc4ccccc4c3)nn2)cc1 .
Reply: 1300

Task item: GET /values?readout=IC50&item= c1ccc(C(c2ccccc2)n2ccnn2)cc1
Reply: 4580

Task item: Quick one: IC50 of c1ccc(-c2cc(Cn3ccnc3)c3ccc4[nH]ccc4c3n2)cc1 ?
Reply: 11.4

Task item: Given the entry Cc1ccccc1CN(Cc1ccc(-c2ccccc2)cc1)n1ccnc1 , report its measured IC50.
Reply: 2960

Task item: Which IC50 value belongs to N#Cc1ccc(C2CC(=O)c3ccc4ccccc4c3O2)cc1 (stereo unspecified) ?
Reply: 1540

Task item: # input compound: COc1ccc(-n2c(Cn3ccnc3)cc3ccc(Cl)cc32)cc1 ; wanted: its IC50
Reply: 203

Task item: Please give the measured IC50 for this compound: COc1ccc(-c2nc(-c3cccnc3)cs2)cc1
Reply: 18000

Task item: Given the entry N#Cc1ccc(C(c2[nH]c3ccccc3c2CCNS(=O)(=O)c2ccc(C(F)(F)F)cc2)c2[nH]c3ccccc3c2CCNS(=O)(=O)c2ccc(C(F)(F)F)cc2)cc1 , report its measured IC50.
Reply: 15300

Task item: Which IC50 value belongs to CC(C)=C(c1ccncc1)c1ccc(-c2ccc3cc(O)ccc3c2)cc1 ?
Reply: 48700

Task item: Data request, read-out IC50, for O=S(=O)(NCCc1c(C(c2ccc(O)cc2)c2[nH]c3ccccc3c2CCNS(=O)(=O)c2ccc(Cl)cc2)[nH]c2ccccc12)c1ccc(Cl)cc1
Reply: 1400

Task item: // returns reported IC50 for input COc1ccccc1CC(Cc1ccc(-c2ccccc2)cc1)n1ccnc1 (stereo unspecified)
Reply: 510

Task item: Tell me the measured IC50 of N#Cc1ccc(C(c2ccc(C#N)cc2)n2cc(-c3ccccc3)nn2)cc1 , please.
Reply: 10300

Task item: Bench note: what IC50 did COc1ccc(-c2cc(CO)c3ccc4[nH]ccc4c3n2)cc1 show?
Reply: 922

Task item: Tell me the measured IC50 of O=[N+]([O-])c1ccc(Cn2ccnc2)c(Oc2ccccc2)c1 , please.
Reply: 12

Task item: Given the entry COc1cc2c(cc1OC)CN(S(=O)(=O)c1cccc(-n3cc(COc4ccc5ccc(=O)oc5c4)nn3)c1)CC2 , report its measured IC50.
Reply: 200

Task item: Which IC50 is reported for this compound? O=C1Nc2ccccc2C1(c1[nH]c2ccccc2c1CCNS(=O)(=O)c1cccc([N+](=O)[O-])c1)c1[nH]c2ccccc2c1CCNS(=O)(=O)c1cccc([N+](=O)[O-])c1
Reply: 11900

Task item: Recorded IC50 of Cn1c(-c2ccccc2)cc2cc([N+](=O)[O-])ccc21 , please.
Reply: 3880

Task item: Any idea what IC50 was measured for N#Cc1ccc(Oc2cccnc2)cc1 ?
Reply: 289

Task item: Bench note: what IC50 did COc1ccc(C(c2cc3c4c(c2)CCN4C(=O)CC3)n2ccnc2)cc1 (stereo unspecified) show?
Reply: 43

Task item: Please look up its IC50: CC(C)(O)C1Cc2c(ccc3c2O[C@H](c2ccc(O)cc2O)CC3=O)O1 (stereo partly specified)
Reply: 100

Task item: Would you mind telling me what IC50 value was observed for N#Cc1cc(Cn2cncn2)cc(-c2ccc(O)c(Cl)c2)c1 ?
Reply: 24

Task item: Which IC50 is listed for O=C1CCc2cc(C(O)(c3ccccc3)c3ccncc3)cc3c2N1CC3 (stereo unspecified) ?
Reply: 105

Task item: Requested field: IC50. Item: COc1ccc(CCNS(=O)(=O)c2ccc(-n3cc(COc4ccc([N+](=O)[O-])cc4)nn3)cc2)cc1OC
Reply: 2700

Task item: I would be grateful if you could share the reported IC50 for N#Cc1ccc(C2CC(n3ccnc3)c3ccc4ccccc4c3O2)cc1 (cis isomer) .
Reply: 534

Task item: Look up IC50: N#Cc1ccc(Cn2cncn2)cc1
Reply: 150

Task item: Query (compound): O=C(Cn1ccnc1)c1ccc(OCc2ccccc2)cc1 ; field requested: IC50
Reply: 4490

Task item: Value lookup for IC50; key = Clc1ccc(CN(Cc2ccc(-c3ccccc3)cc2)n2ccnc2)s1
Reply: 1040
